These entries and their values trace back to patent US20100173827A1.

- System: immobilized gamma globulin (IgG-2)
- protocol_text: Adsorption and desorption of ovine PRPC peptides on immobilized IgG-2 column, ELISA titer
- Format: binding
- experimental_setup: starting material, ELISA with mono-specific anti peptide antibody
Values of Titer in pool greater than or equal to 9000 map to T; values below map to F.

Record excerpt, results attached:
substance | class_name
LQTPQPLLQVMMEPQGD (Ovis aries) [SEQ. ID. NO.: 1] | F
LSQPKVLPVPQKAVPKPDMPIQ [C-11, ID NO.: 34] | T

Form field: Titer in pool at least 9000? Entry: DQPPDVEKPDLQPFQVQS (Ovis aries) [B-9, ID NO.: 19]
F

Form field: Titer in pool at least 9000? Entry: VLEMKFPPPPQETVT (Ovis aries) [A-3, ID NO.: 3]
F

Form field: Titer in pool at least 9000? Entry: AFLLYQEPVLGPV [D-1, ID NO.: 40]
T

Form field: Titer in pool at least 9000? Entry: SPSLPQNIL [C-2, ID NO.: 25]
F

###

- Test system: rabbits
- protocol_text: Immunization of rabbits with peptide antigens, antibody titer in sera
- Type: in vivo, rabbit
- experimental_setup: estimated titer of the antibodies in sera from the immunized rabbits
Recorded Post immunization titers, one value per entry.

Examples with answers:
substance | result
VLEMKFPPPPQETVT (Ovis aries) [SEQ. ID. NO.: 3] | 12,800
MPQNFYKLPQM (Ovis aries) [SEQ. ID. NO.: 2] | >25,600

Note to self: Post immunization titers recorded for LQTPQPLLQVMMEPQGD (Ovis aries) [SEQ. ID. NO.: 1] was 12,800

Note to self: Post immunization titers recorded for LFFFLPVVNVLP (Ovis aries) [SEQ. ID. NO.: 17] was >25,000

Note to self: Post immunization titers recorded for DPPPPQS (Ovis aries) [SEQ. ID. NO.: 6] was 6,400

Note to self: Post immunization titers recorded for AFLLYQEPVLGPV [SEQ. ID. NO.: 40] was >25,000

Note to self: Post immunization titers recorded for MQPPPLP (Ovis aries) [SEQ. ID. NO.: 18] was >25,000

Note to self: Post immunization titers recorded for DLEMPVLPVEPFPFV (Ovis aries) [SEQ. ID. NO.: 16] was >25,000

Note to self: Post immunization titers recorded for EMPFPKY (Ovis aries) [SEQ. ID. NO.: 21] was >25,000

###

- Test system: rabbits
- protocol_text: Immunization of rabbits with peptide antigens, antibody titer in sera
- Assay type: in vivo, rabbit
- experimental_setup: estimated titer of the antibodies in sera from the immunized rabbits
result_type: Post immunization titers

substance | experimental_system | Post immunization titers
LPPNVG (Ovis aries) [SEQ. ID. NO.: 12] | rabbits | >25,000
DQPPDVEKPDLQPFQVQS (Ovis aries) [SEQ. ID. NO.: 19] | rabbits | >25,000
DSQPPV (Ovis aries) [SEQ. ID. NO.: 14] | rabbits | >25,000

Value (Post immunization titers, rabbits) for record LVYPFTGPIPNSLPQNILP (Ovis aries) [SEQ. ID. NO.: 20] = >25,000

Value (Post immunization titers, rabbits) for record LKPFPKLKVEVFPFP (Ovis aries) [SEQ. ID. NO.: 4] = >25,600
